// data source = patent US11352320B2

target: IDO1 (Homo sapiens); assay: IDO1 Cellular Assay in Hela Cells Stimulated with IFNγ; assay type: cell-based; parameters: endogenous in cells; host or cells: HeLa cells stimulated with IFNγ; details: IFNγ 100 ng/mL, 300 uM L-tryptophan, about 48 hours, fluorescence readout, read-out: IDO1 HELA Cell Assay, IC50
Where a name gives a salt, the structure may show the parent alone.
measuredAttribute: IC50
Form entry: enter the amount, then its unit.

These recorded examples may help you get a feel for the data.
>>> measvalue("CC(C(=O)Nc1ccc(F)cc1)C12CC(Nc3ncnc4ccccc34)(C1)C2 (single isomer, unassigned) [Example 4]")
"388 nM"
>>> measvalue("C[C@H](C(=O)Nc1ccc(F)cc1)C12CC(NCc3ccc(Cl)c(Cl)c3)(C1)C2 [Example 32, TFA]")
"51.3 nM"
>>> measvalue("CC(C(=O)Nc1ccc(F)cc1)C12CC(Nc3nc(Cl)nc4c3CCC4)(C1)C2 (single isomer, unassigned) [Example 9]")
"11.1 nM"

Value of measured IC50 for the entry C[C@H](C(=O)Nc1ccc(F)cc1)C12CC(N(C)Cc3cccc(C(F)(F)F)c3)(C1)C2 [Example 31, TFA] : 15.1 nM

Value of measured IC50 for the entry CC(C(=O)Nc1ccc(F)cc1)C12CC(Nc3nc(Cl)nc4c3CCC4)(C1)C2 (single isomer, unassigned) [Example 8] : 330 nM

----------
We begin with a simple list: items and their reported pIC50.
biological target: IDO1 (Homo sapiens, UniProt P14902); assay: IDO1 Cellular Assay in Hela Cells Stimulated with IFNγ; type: cell-based; design: endogenous in cells; host or cells: HeLa cells stimulated with IFNγ; conditions: IFNγ 100 ng/mL, 300 uM L-tryptophan, about 48 hours, fluorescence readout, read-out: IDO1 HELA Cell Assay, IC50
Sequence (P14902 whole entry): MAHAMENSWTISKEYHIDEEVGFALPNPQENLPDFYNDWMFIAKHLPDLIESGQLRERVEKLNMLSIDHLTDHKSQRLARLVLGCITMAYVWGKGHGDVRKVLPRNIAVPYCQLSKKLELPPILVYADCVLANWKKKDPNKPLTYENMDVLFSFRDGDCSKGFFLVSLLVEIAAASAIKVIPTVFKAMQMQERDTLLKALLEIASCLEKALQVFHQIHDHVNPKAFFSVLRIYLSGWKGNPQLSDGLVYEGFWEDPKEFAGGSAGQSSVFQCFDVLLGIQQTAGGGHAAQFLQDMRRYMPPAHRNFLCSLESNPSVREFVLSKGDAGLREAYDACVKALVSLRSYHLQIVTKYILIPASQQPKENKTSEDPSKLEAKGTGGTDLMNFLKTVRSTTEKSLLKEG
Structures can show the parent of a compound that is named as a salt.
// pIC50 is dimensionless: -log10 of concentration (M)

These recorded examples may help you get a feel for the data.
>>> measvalue("CC(C(=O)Nc1ccc(F)cc1)C12CC(Nc3ncc(C(F)(F)F)cc3F)(C1)C2 (stereo not shown) [Example 13]")
6.86
>>> measvalue("CC(C(=O)Nc1ccc(F)cc1)C12CC(Nc3cc(C(F)(F)F)ccn3)(C1)C2 (stereo not shown)")
6.76
>>> measvalue("C[C@H](C(=O)Nc1ccc(F)cc1)C12CC(NCc3cccc(Cl)c3)(C1)C2 [Example 28, TFA]")
7.59
>>> measvalue("Cc1nc(NC23CC(C(C)C(=O)Nc4ccc(F)cc4)(C2)C3)c2cc(F)ccc2n1 (single isomer, unassigned)")
6.23
>>> measvalue("C[C@H](C(=O)Nc1ccc(F)cc1)C12CC(N(C)Cc3cccc(Cl)c3)(C1)C2 [Example 29, TFA]")
8.25
>>> measvalue("CC(C(=O)Nc1ccc(F)cc1)C12CC(Nc3ncnc4ccccc34)(C1)C2 (single isomer, unassigned) [Example 5]")
8.27
>>> measvalue("CC(C(=O)Nc1ccc(F)cc1)C12CC(Nc3ncc(C(F)(F)F)cc3F)(C1)C2 (stereo not shown) [Example 22]")
6.78
>>> measvalue("CC(C(=O)Nc1ccc(F)cc1)C12CC(Nc3nncc4ccccc34)(C1)C2 (stereo not shown)")
6.74
>>> measvalue("Cc1nc(NC23CC(C(C)C(=O)Nc4ccc(F)cc4)(C2)C3)ccc1C(F)(F)F (stereo not shown)")
7.28
>>> measvalue("CC(C(=O)Nc1ccc(F)cc1)C12CC(Nc3ccc(C(F)(F)F)cn3)(C1)C2 (stereo not shown)")
7.10

Value of measured pIC50 for the entry CC(C(=O)Nc1ccc(F)cc1)C12CC(Nc3ccnc(C(F)(F)F)n3)(C1)C2 (stereo not shown) : 7.03

Value of measured pIC50 for the entry CC(C(=O)Nc1ccc(F)cc1)C12CC(Nc3nccnc3C(F)(F)F)(C1)C2 (stereo not shown) : 6.34

Value of measured pIC50 for the entry Cc1nccc(NC23CC(C(C)C(=O)Nc4ccc(Cl)cc4)(C2)C3)n1 (racemic) : 7.48

Value of measured pIC50 for the entry Cc1nccc(NC23CC([C@H](C)C(=O)Nc4ccc(Cl)cc4)(C2)C3)n1 (single isomer, unassigned) [Example 3] : 6.37

Value of measured pIC50 for the entry CC(C(=O)Nc1ccc(F)cc1)C12CC(Nc3ncnc4ccc(F)cc34)(C1)C2 (single isomer, unassigned) [Example 10] : 6.68

Value of measured pIC50 for the entry CC(C(=O)Nc1ccc(F)cc1)C12CC(Nc3nccc(C(F)(F)F)c3C#N)(C1)C2 (stereo not shown) : 7.56
